Cited source for all entries: ChEMBL document CHEMBL1141578

# procedure-summary: Inhibition of AmpC beta lactamase
pKi: −log10 of the molar value.
experimental-readout: pKi

Solved entries (count: 2):
CC(=O)OCC1=C(C(=O)O)N2C(=O)[C@@H](NC(=O)Cc3cccs3)[C@H]2SC1 [CEPHALOTHIN]    6.49
O=C(Cc1cccs1)N[C@H](B(O)O)c1cccc(C(=O)O)c1    9.00

I. O=C(Cc1cccs1)NCB(O)O
II. CC(=O)NCB(O)O [ACETAMIDOMETHYLBORONIC ACID]
III. O=C(Cc1cccs1)N[C@H](B(O)O)c1ccccc1
IV. CB(O)O [METHANE BORONIC ACID]
[ask] Please order the records by their reported pKi, lowest number first. Write the labels out in the order the request specifies.
[reply] IV, II, I, III

* * *

# procedure-summary: Inhibition of AmpC beta lactamase N289A mutant
Reported pKi by item:
Scale for pKi: -log10 of concentration given in mol/L; no unit attached.

O=C(O)/C=C/c1cccc([C@H](NC(=O)Cc2cccs2)B(O)O)c1    8.55

The recorded pKi for entry O=C(Cc1cccs1)N[C@H](B(O)O)c1cccc(C(=O)O)c1 equals 7.77

* * *

# procedure-summary: Inhibition of beta lactamase TEM1
Reported pKi by item:
Scale for pKi: -log10 of concentration given in mol/L; no unit attached.

O=C(Cc1cccs1)N[C@H](B(O)O)c1cccc(C(=O)O)c1    7.19

Read the next record carefully.
The recorded pKi for entry O=C(O)/C=C/c1cccc([C@H](NC(=O)Cc2cccs2)B(O)O)c1 equals 6.97
